- system: Telomerase reverse transcriptase (Homo sapiens)
- test_description: Inhibition of telomerase activity in human M14 cells using biotin-labeled TeloTAGGG as primer preincubated for 48 hrs followed by primer addition measured after 30 mins by PCR-ELISA
- Format: cell-based
attribute_measured: IC50

| compound | readout_value |
| --- | --- |
| CC1CCCC2(OC(O)C=CC2=O)O1 (mixture of isomers) | 12.6 to 85.2 nM |

* * *

- system: Telomerase reverse transcriptase (Homo sapiens, UniProt O14746)
- Sequence (O14746 whole entry): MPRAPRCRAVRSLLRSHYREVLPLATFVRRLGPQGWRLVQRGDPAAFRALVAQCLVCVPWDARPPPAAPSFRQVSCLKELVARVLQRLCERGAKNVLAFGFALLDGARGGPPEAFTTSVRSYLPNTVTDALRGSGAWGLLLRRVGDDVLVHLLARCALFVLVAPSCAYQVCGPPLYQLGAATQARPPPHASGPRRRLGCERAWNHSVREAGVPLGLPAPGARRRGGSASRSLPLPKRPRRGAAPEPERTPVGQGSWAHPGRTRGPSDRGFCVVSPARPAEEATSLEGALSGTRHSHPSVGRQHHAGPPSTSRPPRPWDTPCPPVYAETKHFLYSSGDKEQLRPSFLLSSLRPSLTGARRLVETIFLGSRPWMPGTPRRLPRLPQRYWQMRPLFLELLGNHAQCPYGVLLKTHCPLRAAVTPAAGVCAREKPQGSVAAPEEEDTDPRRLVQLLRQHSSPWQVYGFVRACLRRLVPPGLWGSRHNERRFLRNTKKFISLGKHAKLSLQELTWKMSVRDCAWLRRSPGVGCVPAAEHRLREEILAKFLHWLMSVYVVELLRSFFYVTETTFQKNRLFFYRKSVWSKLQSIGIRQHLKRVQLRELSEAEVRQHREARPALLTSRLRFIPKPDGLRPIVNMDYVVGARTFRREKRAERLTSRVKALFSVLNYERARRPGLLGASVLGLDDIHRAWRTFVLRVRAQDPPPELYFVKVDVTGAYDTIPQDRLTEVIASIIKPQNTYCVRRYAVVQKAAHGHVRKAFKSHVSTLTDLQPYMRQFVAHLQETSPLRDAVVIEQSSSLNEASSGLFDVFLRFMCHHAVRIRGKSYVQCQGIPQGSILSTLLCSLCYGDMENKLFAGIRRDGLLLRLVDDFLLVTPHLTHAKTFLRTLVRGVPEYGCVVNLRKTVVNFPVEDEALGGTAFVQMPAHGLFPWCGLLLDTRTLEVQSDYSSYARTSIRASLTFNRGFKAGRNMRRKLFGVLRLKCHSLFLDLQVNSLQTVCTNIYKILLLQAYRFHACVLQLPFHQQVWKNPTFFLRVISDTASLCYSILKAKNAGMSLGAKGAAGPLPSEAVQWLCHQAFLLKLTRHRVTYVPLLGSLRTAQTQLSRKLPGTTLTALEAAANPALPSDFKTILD
- test_description: Inhibition of telomerase activity in human H125 cells using biotin-labeled TeloTAGGG as primer preincubated for 48 hrs followed by primer addition measured after 30 mins by PCR-ELISA
- Format: cell-based

| compound | IC50 |
| --- | --- |
| CC1CCCC2(OC(O)C=CC2=O)O1 (mixture of isomers) | 12.6 to 85.2 nM |

These entries and their values trace back to ChEMBL document CHEMBL3861986.
